pKd, PIK3R2-NC tandem SH2 domains (Homo sapiens): measured values
pKd: −log10 of the molar value. Residues, ends and D or L forms follow the SMILES beside them.
metricName: pKd

{"compound": "CC(C)C[C@H](NC(=O)[C@H](Cc1ccc(O)cc1)NC(=O)[C@H](CC(C)C)NC(=O)[C@@H]1CCCN1C(=O)[C@H](CCC(=O)O)NC(=O)[C@H](CC(N)=O)NC(=O)[C@@H](NC(=O)[C@H](Cc1ccc(OP(=O)(O)O)cc1)NC(=O)[C@H](CCC(=O)O)NC(=O)[C@H](CC(=O)O)NC(=O)[C@H](CCC(=O)O)NC(=O)[C@H](C)N)C(C)C)C(=O)N[C@@H](CC(=O)O)C(=O)O [ErbB4 1202 13-mer] (HELM PEPTIDE1{A.E.D.E.[O=C([C@H](Cc1ccc(OP(=O)(O)O)cc1)N[*:1])[*:2]].V.N.E.P.L.Y.L.D}$$$$V2.0)", "measuredResult": 5.30}
{"compound": "CC[C@H](C)[C@H](NC(=O)[C@H](Cc1ccc(OP(=O)(O)O)cc1)NC(=O)[C@H](CCC(=O)O)NC(=O)[C@@H]1CCCN1C(=O)[C@@H](NC(=O)[C@@H]1CCCN1)C(C)C)C(=O)N[C@@H](CC(N)=O)C(=O)N[C@@H](CCC(N)=O)C(=O)N[C@@H](CO)C(=O)N[C@H](C(=O)N1CCC[C@H]1C(=O)N[C@@H](CCCCN)C(=O)N[C@@H](CC(=O)O)C(=O)O)C(C)C", "measuredResult": 4.95}
{"compound": "CC[C@H](C)[C@H](NC(=O)[C@H](CC(C)C)NC(=O)[C@H](Cc1ccc(OP(=O)(O)O)cc1)NC(=O)[C@H](CCC(=O)O)NC(=O)[C@H](CC(=O)O)NC(=O)[C@H](C)NC(=O)[C@@H](N)CC(=O)O)C(=O)N1CCC[C@H]1C(=O)N[C@@H](CCC(N)=O)C(=O)N[C@@H](CCC(N)=O)C(=O)NCC(=O)N[C@@H](Cc1ccccc1)C(=O)N[C@@H](CC(=O)O)C(=O)O", "measuredResult": 5.61}
{"compound": "CC(C)C[C@H](NC(=O)[C@H](Cc1ccc(OP(=O)(O)O)cc1)NC(=O)[C@H](CCC(=O)O)NC(=O)[C@H](CCC(=O)O)NC(=O)[C@H](C)NC(=O)[C@@H](N)CC(=O)O)C(=O)N[C@H](C(=O)N1CCC[C@H]1C(=O)N[C@@H](CCC(N)=O)C(=O)N[C@@H](CCC(N)=O)C(=O)NCC(=O)N[C@@H](Cc1ccccc1)C(=O)N[C@@H](CC(=O)O)C(=O)O)C(C)C [ErbB2 1023 13-mer] (HELM PEPTIDE1{D.A.E.E.[O=C([C@H](Cc1ccc(OP(=O)(O)O)cc1)N[*:1])[*:2]].L.V.P.Q.Q.G.F.D}$$$$V2.0)", "measuredResult": 5.22}
{"compound": "CSCC[C@H](NC(=O)[C@@H](NC(=O)[C@H](Cc1ccc(OP(=O)(O)O)cc1)NC(=O)[C@H](C)NC(=O)[C@H](CCC(=O)O)NC(=O)[C@H](CC(=O)O)NC(=O)[C@@H](N)CC(C)C)C(C)C)C(=O)N[C@@H](C)C(=O)N[C@@H](CO)C(=O)N[C@H](C(=O)N[C@@H](CC(=O)O)C(=O)N[C@@H](CC(N)=O)C(=O)N[C@@H](CC(=O)O)C(=O)O)C(C)C [ErbB1 764 13-mer] (HELM PEPTIDE1{L.D.E.A.[O=C([C@H](Cc1ccc(OP(=O)(O)O)cc1)N[*:1])[*:2]].V.M.A.S.V.D.N.D}$$$$V2.0)", "measuredResult": 5.51}
{"compound": "CC(C)C[C@H](NC(=O)[C@H](Cc1ccc(OP(=O)(O)O)cc1)NC(=O)[C@H](CC(C)C)NC(=O)[C@@H]1CCCN1C(=O)[C@H](CCC(=O)O)NC(=O)[C@@H](N)CC(N)=O)C(=O)N[C@@H](CC(N)=O)C(=O)N[C@H](C(=O)N[C@@H](Cc1ccccc1)C(=O)N[C@@H](C)C(=O)N[C@@H](CC(N)=O)C(=O)N[C@H](C(=O)N[C@@H](CC(=O)O)C(=O)O)[C@@H](C)O)[C@@H](C)O [ErbB4 1208 13-mer] (HELM PEPTIDE1{N.E.P.L.[O=C([C@H](Cc1ccc(OP(=O)(O)O)cc1)N[*:1])[*:2]].L.N.T.F.A.N.T.D}$$$$V2.0)", "measuredResult": 4.95}

* * *

pKd by entry:
target: PIK3R2-NC tandem SH2 domains (Homo sapiens); assay: FP saturation binding assay
Sequence (O00459 330-716 limits assumed): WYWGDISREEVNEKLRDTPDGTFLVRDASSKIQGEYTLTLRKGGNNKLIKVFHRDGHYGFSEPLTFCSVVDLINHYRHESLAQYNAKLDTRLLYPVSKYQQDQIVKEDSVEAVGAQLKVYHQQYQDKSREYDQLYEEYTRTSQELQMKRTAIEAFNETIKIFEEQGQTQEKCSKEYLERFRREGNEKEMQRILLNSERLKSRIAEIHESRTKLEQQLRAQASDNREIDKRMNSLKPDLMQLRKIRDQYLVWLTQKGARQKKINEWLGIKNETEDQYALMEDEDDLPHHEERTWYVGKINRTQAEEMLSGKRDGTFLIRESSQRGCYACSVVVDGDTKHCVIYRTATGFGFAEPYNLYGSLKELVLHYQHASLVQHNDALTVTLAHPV
pKd: −log10 of the molar value. Residues, ends and D or L forms follow the SMILES beside them.
metricName: pKd

{"compound": "CC(C)C[C@H](NC(=O)CNC(=O)[C@H](CC(C)C)NC(=O)[C@H](Cc1ccc(OP(=O)(O)O)cc1)NC(=O)[C@H](CCC(=O)O)NC(=O)[C@@H]1CCCN1C(=O)[C@H](CC(N)=O)NC(=O)[C@@H](N)CCC(=O)O)C(=O)N[C@@H](CC(=O)O)C(=O)N[C@H](C(=O)N1CCC[C@H]1C(=O)N[C@H](C(=O)N[C@@H](CC(=O)O)C(=O)O)C(C)C)C(C)C [ErbB2 1248 13-mer] (HELM PEPTIDE1{E.N.P.E.[O=C([C@H](Cc1ccc(OP(=O)(O)O)cc1)N[*:1])[*:2]].L.G.L.D.V.P.V.D}$$$$V2.0)", "metricName": "pKd", "measuredResult": 5.00}
{"compound": "CSCC[C@H](NC(=O)[C@H](Cc1ccc(OP(=O)(O)O)cc1)NC(=O)[C@H](CCC(=O)O)NC(=O)[C@H](Cc1ccc(O)cc1)NC(=O)CNC(=O)[C@@H](N)CC(C)C)C(=O)N[C@@H](CC(=O)O)C(=O)N[C@H](C(=O)NCC(=O)N[C@@H](CO)C(=O)N[C@@H](CC(=O)O)C(=O)N[C@@H](CC(C)C)C(=O)N[C@@H](CC(=O)O)C(=O)O)C(C)C [ErbB3 1224 13-mer] (HELM PEPTIDE1{L.G.Y.E.[O=C([C@H](Cc1ccc(OP(=O)(O)O)cc1)N[*:1])[*:2]].M.D.V.G.S.D.L.D}$$$$V2.0)", "metricName": "pKd", "measuredResult": 5.48}
{"compound": "CSCC[C@H](NC(=O)[C@H](Cc1ccc(OP(=O)(O)O)cc1)NC(=O)[C@H](CCC(=O)O)NC(=O)[C@H](Cc1ccc(O)cc1)NC(=O)[C@H](CC(=O)O)NC(=O)[C@@H](N)CCC(=O)O)C(=O)N[C@@H](CC(N)=O)C(=O)N[C@@H](CCCNC(=N)N)C(=O)N[C@@H](CCC(N)=O)C(=O)N[C@@H](CCCNC(=N)N)C(=O)N[C@@H](CC(=O)O)C(=O)NCC(=O)N[C@@H](CC(=O)O)C(=O)O [ErbB3 1262 13-mer] (HELM PEPTIDE1{E.D.Y.E.[O=C([C@H](Cc1ccc(OP(=O)(O)O)cc1)N[*:1])[*:2]].M.N.R.Q.R.D.G.D}$$$$V2.0)", "metricName": "pKd", "measuredResult": 4.74}
{"compound": "CC(C)[C@H](NC(=O)[C@H](CC(=O)O)NC(=O)[C@@H]1CCCN1C(=O)[C@H](CCC(N)=O)NC(=O)[C@H](CC(N)=O)NC(=O)[C@@H](NC(=O)[C@H](Cc1ccc(OP(=O)(O)O)cc1)NC(=O)[C@H](CCC(=O)O)NC(=O)[C@@H]1CCCN1C(=O)[C@H](CCC(N)=O)NC(=O)[C@@H]1CCCN1)C(C)C)C(=O)N[C@@H](CCCNC(=N)N)C(=O)N[C@@H](CC(=O)O)C(=O)O [ErbB2 1139 13-mer] (HELM PEPTIDE1{P.Q.P.E.[O=C([C@H](Cc1ccc(OP(=O)(O)O)cc1)N[*:1])[*:2]].V.N.Q.P.D.V.R.D}$$$$V2.0)", "metricName": "pKd", "measuredResult": 5.24}

* * *

Target: PTPN11-NC tandem SH2 domains (Homo sapiens, UniProt Q06124)
Sequence (Q06124 6-216 limits assumed): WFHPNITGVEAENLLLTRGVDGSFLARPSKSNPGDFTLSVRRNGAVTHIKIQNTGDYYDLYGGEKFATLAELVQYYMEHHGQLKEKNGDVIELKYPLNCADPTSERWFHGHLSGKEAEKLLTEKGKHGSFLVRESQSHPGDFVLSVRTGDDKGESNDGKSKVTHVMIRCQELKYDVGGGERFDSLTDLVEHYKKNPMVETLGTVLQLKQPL
pKd: −log10 of the molar value. Residues, ends and D or L forms follow the SMILES beside them.
pKd by entry:

{"compound": "CC(C)[C@H](NC(=O)[C@H](CC(=O)O)NC(=O)[C@@H]1CCCN1C(=O)[C@H](CCC(N)=O)NC(=O)[C@H](CC(N)=O)NC(=O)[C@@H](NC(=O)[C@H](Cc1ccc(OP(=O)(O)O)cc1)NC(=O)[C@H](CCC(=O)O)NC(=O)[C@@H]1CCCN1C(=O)[C@H](CCC(N)=O)NC(=O)[C@@H]1CCCN1)C(C)C)C(=O)N[C@@H](CCCNC(=N)N)C(=O)N[C@@H](CC(=O)O)C(=O)O [ErbB2 1139 13-mer] (HELM PEPTIDE1{P.Q.P.E.[O=C([C@H](Cc1ccc(OP(=O)(O)O)cc1)N[*:1])[*:2]].V.N.Q.P.D.V.R.D}$$$$V2.0)", "pKd": 5.06}
{"compound": "CC[C@H](C)[C@H](NC(=O)[C@@H]1CCCN1C(=O)[C@@H](NC(=O)[C@H](CCCCN)NC(=O)[C@H](C)NC(=O)[C@H](CCC(=O)O)NC(=O)[C@H](CO)NC(=O)[C@H](Cc1ccc(OP(=O)(O)O)cc1)NC(=O)[C@H](CC(C)C)NC(=O)[C@H](CC(C)C)NC(=O)[C@H](CCC(N)=O)NC(=O)[C@@H](N)CCCCN)[C@@H](C)O)C(=O)N[C@@H](CC(=O)O)C(=O)O [ErbB3 868 13-mer] (HELM PEPTIDE1{K.Q.L.L.[O=C([C@H](Cc1ccc(OP(=O)(O)O)cc1)N[*:1])[*:2]].S.E.A.K.T.P.I.D}$$$$V2.0)", "pKd": 5.43}
{"compound": "CC(C)C[C@H](NC(=O)[C@H](Cc1ccc(OP(=O)(O)O)cc1)NC(=O)[C@H](CCC(=O)O)NC(=O)[C@H](CCC(=O)O)NC(=O)[C@H](C)NC(=O)[C@@H](N)CC(=O)O)C(=O)N[C@H](C(=O)N1CCC[C@H]1C(=O)N[C@@H](CCC(N)=O)C(=O)N[C@@H](CCC(N)=O)C(=O)NCC(=O)N[C@@H](Cc1ccccc1)C(=O)N[C@@H](CC(=O)O)C(=O)O)C(C)C [ErbB2 1023 13-mer] (HELM PEPTIDE1{D.A.E.E.[O=C([C@H](Cc1ccc(OP(=O)(O)O)cc1)N[*:1])[*:2]].L.V.P.Q.Q.G.F.D}$$$$V2.0)", "pKd": 4.97}
